Substrate: CC(=O)Oc1cccc2ccccc12
EXPERIMENTAL_PROTOCOL: spectrophotometric esterase assay
Type: biochemical, Oleispira antarctica
EXPERIMENTAL_SETUP: 0.4 M NaCl, 50 mM potassium Hepes pH 8.0, 20°C
METRIC: Km (µM)
Write the number in µM without appending the unit.

PROTEIN: OLEI01171 (Oleispira antarctica; A224K) (protein) MSIENLSSNKSFGGWHKQYSHVSNTLNCAMRFAIYLPPQASTGAKVPVLYWLSGLTCSDENFMQKAGAQRLAAELGIAIVAPDTSPRGEGVADDEGYDLGQGAGFYVNATQAPWNRHYQMYDYVVNELPELIESMFPVSDKRAIAGHSMGGHGALTIALRNPERYQSVSAFSPINNPVNCPWGQKAFTAYLGKDTDTWREYDASLLMRAAKQYVPALVDQGEKDNFLAEQLKPEVLEAAASSNNYPLELRSHEGYDHSYYFIASFIEDHLRFHSNYLNA
ENDPOINT_UNIT: µM
READING: 300
--
PROTEIN: OLEI01171 (Oleispira antarctica; C58A) (protein) MSIENLSSNKSFGGWHKQYSHVSNTLNCAMRFAIYLPPQASTGAKVPVLYWLSGLTASDENFMQKAGAQRLAAELGIAIVAPDTSPRGEGVADDEGYDLGQGAGFYVNATQAPWNRHYQMYDYVVNELPELIESMFPVSDKRAIAGHSMGGHGALTIALRNPERYQSVSAFSPINNPVNCPWGQKAFTAYLGKDTDTWREYDASLLMRAAKQYVPALVDQGEADNFLAEQLKPEVLEAAASSNNYPLELRSHEGYDHSYYFIASFIEDHLRFHSNYLNA
ENDPOINT_UNIT: µM
READING: 200
--
PROTEIN: OLEI01171 (Oleispira antarctica; N226A) (protein) MSIENLSSNKSFGGWHKQYSHVSNTLNCAMRFAIYLPPQASTGAKVPVLYWLSGLTCSDENFMQKAGAQRLAAELGIAIVAPDTSPRGEGVADDEGYDLGQGAGFYVNATQAPWNRHYQMYDYVVNELPELIESMFPVSDKRAIAGHSMGGHGALTIALRNPERYQSVSAFSPINNPVNCPWGQKAFTAYLGKDTDTWREYDASLLMRAAKQYVPALVDQGEADAFLAEQLKPEVLEAAASSNNYPLELRSHEGYDHSYYFIASFIEDHLRFHSNYLNA
ENDPOINT_UNIT: µM
READING: 500
--
PROTEIN: OLEI01171 (Oleispira antarctica; N62A) (protein) MSIENLSSNKSFGGWHKQYSHVSNTLNCAMRFAIYLPPQASTGAKVPVLYWLSGLTCSDEAFMQKAGAQRLAAELGIAIVAPDTSPRGEGVADDEGYDLGQGAGFYVNATQAPWNRHYQMYDYVVNELPELIESMFPVSDKRAIAGHSMGGHGALTIALRNPERYQSVSAFSPINNPVNCPWGQKAFTAYLGKDTDTWREYDASLLMRAAKQYVPALVDQGEADNFLAEQLKPEVLEAAASSNNYPLELRSHEGYDHSYYFIASFIEDHLRFHSNYLNA
ENDPOINT_UNIT: µM
READING: 500

// next entry
Prompt line: Fill in: Km of OLEI01171 (Oleispira antarctica; Y98A) (protein) MSIENLSSNKSFGGWHKQYSHVSNTLNCAMRFAIYLPPQASTGAKVPVLYWLSGLTCSDENFMQKAGAQRLAAELGIAIVAPDTSPRGEGVADDEGADLGQGAGFYVNATQAPWNRHYQMYDYVVNELPELIESMFPVSDKRAIAGHSMGGHGALTIALRNPERYQSVSAFSPINNPVNCPWGQKAFTAYLGKDTDTWREYDASLLMRAAKQYVPALVDQGEADNFLAEQLKPEVLEAAASSNNYPLELRSHEGYDHSYYFIASFIEDHLRFHSNYLNA is ___
Response line: 1700
